measured target: Bcl-2 (residues 1-207 A96T,G110R, Δ35-91, replaced with Bcl-xL35-50) (Homo sapiens, UniProt P10415, A37E/DEL42-87/G36T/INS34DVEEN/P40E/P88T/P90S/P91E/V35R/V89E)
assay: Fluorescence polarization anisotropy competition selectivity assay (FITC-Bak peptide) with Bcl-2
test context: Table 3; 40 nM Bcl-2, 10 nM FITC-Bak
recorded metric: pKi
Numbers only, as −log10 of the molar value.

In the examples that follow, each entry is paired with its recorded pKi.
Cc1cc(OCCCc2c(C(=O)Nc3cccc(C(=O)O)c3)[nH]c3c(-c4c(C)nn(C)c4C)c(Cl)ccc23)cc(C)c1Cl : 5.81
Cc1cc(OCCCc2c(C(=O)N(C)c3cccc(C(=O)O)c3)n(C)c3c(-c4c(C)nn(C)c4C)c(Cl)ccc23)cc(C)c1Cl : 5.86
Cc1cc(OCCCc2c(C(=O)Nc3cc(C(=O)O)ccn3)[nH]c3c(-c4c(C)nn(C)c4C)c(Cl)ccc23)cc(C)c1Cl : 5.54
Cc1cc(OCCCc2c(C(=O)Nc3ccc(C(=O)O)cc3)[nH]c3c(-c4c(C)nn(CCN5CCOCC5)c4C)c(Cl)ccc23)cc(C)c1Cl : 5.79
Cc1cc(OCCCc2c3n(c4c(-c5c(C)nn(C)c5C)cccc24)CCN(Cc2cccc(C(=O)O)c2)C3=O)cc(C)c1Cl : 5.66

Look at each compound and report its pKi.
1. Cc1cc(OCCCc2c(C(=O)NCc3cc(C(=O)O)n(C)c3)[nH]c3c(-c4c(C)nn(C)c4C)cccc23)cc(C)c1Cl
2. Cc1cc(OCCCc2c(C(=O)NCc3c[nH]c(C(=O)O)c3)[nH]c3c(-c4c(C)nn(C)c4C)cccc23)cc(C)c1Cl

[5.45, 5.23]

###

measured target: recombinant Mcl-1 (residues 172-327) (Homo sapiens (Human))
Sequence (Q07820 172-327): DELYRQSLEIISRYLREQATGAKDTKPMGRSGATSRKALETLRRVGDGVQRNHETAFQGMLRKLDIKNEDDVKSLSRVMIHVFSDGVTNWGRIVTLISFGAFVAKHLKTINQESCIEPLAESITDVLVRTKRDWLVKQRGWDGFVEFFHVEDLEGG
assay: Fluorescence polarization anisotropy competition assay (FITC-Bak or FITC-Bim BH3 peptide) with Mcl-1
Type: binding
test context: Table 2; Ki bins given in nM; FITC-Bak or FITC-Bim peptide competition; Ki converted from IC50; read-out: Ki for Inhibition of Mcl-1
Field: Ki. Provide a value for each of the compounds that follow.

In the examples that follow, each entry is paired with its recorded Ki.
Cc1cc(OCCCc2c3n(c4c(-c5c(C)nn(C)c5C)cccc24)CCCN(Cc2ccc(N4CCCCC4)c(C(=O)O)c2)C3=O)cc(C)c1Cl : 51 to 100 nM
Cc1ccc(C(=O)O)cc1N1CCCn2c(c(CCCOc3cc(C)c(Cl)c(C)c3)c3ccc(Cl)c(-c4c(C)nn(C)c4C)c32)C1=O : < 50 nM
Cc1cc(OCCCc2c(C(=O)N(C)c3cccc(C(=O)O)c3)[nH]c3c(-c4c(C)nn(C)c4C)cccc23)cc(C)c1Cl : < 50 nM

Look at each compound and report its Ki.
1. Cc1cc(OCCCc2c(C(=O)N3CCN(c4ccc(C(=O)O)cc4)CC3)n(Cc3ccncc3)c3c(-c4c(C)nn(C)c4C)c(Cl)ccc23)cc(C)c1Cl
2. Cc1cc(OCCCc2c(C(=O)N(C)Cc3ccc(C(=O)O)o3)n(C)c3c(-c4c(C)nn(C)c4C)cccc23)cc(C)c1Cl
3. Cc1cc(OCCCc2c(C(=O)Nc3cc(C(=O)O)cc(N4CCOCC4)c3)[nH]c3c(-c4c(C)nn(C)c4C)c(Cl)ccc23)cc(C)c1Cl

1: 51 to 100 nM; 2: 101 to 299 nM; 3: < 50 nM
